System: SF-295 CNS
test: NCI tumour cell line growth inhibition, 48 h
Entries and their measured TGI follow.
readout name: TGI

> print(dat)
                                    compound  readout.value
 1       CCOC(=O)N(O)c1ccc(/C=C/c2ccccc2)cc1        22.1 µM
 2                       CCc1n[nH]c(=O)[nH]1       > 100 µM
 3  O=C(O)c1cccc(S(=O)(=O)NN2C(=O)CSC2c2c(O)ccc3ccccc23)c1 (stereo unspecified)        94.9 µM
 4  CN(C)CCOc1ccc2c(c1)C(=O)/C(=C\c1ncc([N+](=O)[O-])n1C)C2        1.47 µM
 5  Nc1ccn(C2CC3OCC3O2)c(=O)n1 (stereo unspecified)       > 100 µM
 6  O=[N+]([O-])c1ccc(Nc2cccc3c2[nH]c2c(-c4ccccc4)nccc23)c([N+](=O)[O-])c1       > 100 µM
 7  CC1C(c2ccccc2)NC(c2ccccc2)CC1(N)C#N (stereo unspecified)       > 100 µM
 8        CCOc1ccccc1N=Cc1c2ccccc2cc2ccccc12       > 100 µM
 9                C=CCCC(=O)CC(=O)OCc1ccccc1       > 100 µM
10  Cc1cc(S(=O)(=O)Nc2n[nH]c(Nc3ccccc3)n2)c(SSc2cc(Cl)c(C)cc2S(=O)(=O)Nc2n[nH]c(Nc3ccccc3)n2)cc1Cl       > 100 µM
11  COc1cc2nc(-c3cccs3)nc(N3C(c4cc(OC)c(OC)c(OC)c4)=NNC(=O)c4ccccc43)c2cc1OC        42.6 µM
12       N#CNC1=NCCC(=O)N1CCc1c[nH]c2ccccc12       > 100 µM
13  O=C(O)C1CSC2(CCCN(Cc3ccccc3)C2)N1 (stereo unspecified)       > 100 µM
14  CNc1nc(-c2ccc3c(N)n[nH]c3c2)cc(N2C[C@@H](C(=O)NC3CCCCC3)CC[C@H]2C)n1        15.8 µM
15  Cn1cc(-c2csc(-c3cn(C(=O)OC(C)(C)C)c4ccccc34)n2)c2cccnc21        14.5 µM
16                  O=NNc1c[nH]c(=O)[nH]c1=O       > 100 µM
17  COc1cc([C@@H]2c3cc4c(cc3[C@@H](NCc3cccc(F)c3)C3COC(=O)[C@@H]32)OCO4)cc(OC)c1O (stereo partly specified)        > 65 µM
18    CSc1c(C)n([O-])c2cc(Cl)c(Cl)cc2[n+]1=O       > 100 µM
19  CCOC(=O)CN1C(=O)C(=O)N(c2ccc(OC)c3ccccc23)C1=O       > 100 µM
20  O=S(=O)(Nc1ccc(Cl)c(Cl)c1)c1ccc(-c2cnc(C3CC3)o2)cc1        11.4 µM
21  CC1=C(C(=O)NCc2ccccc2)C(c2ccco2)C(C(=O)NCc2ccccc2)=C(C)N1       > 100 µM

====

Test system: RPMI-8226 leukemia
test: NCI tumour cell line growth inhibition, 48 h
readout name: TGI

> print(dat)
                                   compound  target.or.test.system  readout.value
1  C=C(CN1CCN(c2ccc(F)c(Cl)c2)CC1)c1ccc(C(=O)Nc2ccccc2N)cc1     RPMI-8226 leukemia         5.1 µM
2  CCOc1ccccc1NC(=O)C1=C(C)NC(C)=C(C(=O)Nc2ccccc2OCC)C1c1cccc([N+](=O)[O-])c1     RPMI-8226 leukemia       > 100 µM
3  CCOC(=O)C1CCCN1C(=O)c1ccccc1Cl (stereo not given)     RPMI-8226 leukemia       > 100 µM
4     Cc1cc(O)c(C(C)C)cc1C(=S)Nc1ccc(Cl)cc1     RPMI-8226 leukemia          33 µM
5             CCOP(=O)(Cc1nc(C#N)c(N)o1)OCC     RPMI-8226 leukemia       > 100 µM
